Molecular target: T1, human GIP receptor (human, UniProt P48546 22-466)
T1 sequence (looked up): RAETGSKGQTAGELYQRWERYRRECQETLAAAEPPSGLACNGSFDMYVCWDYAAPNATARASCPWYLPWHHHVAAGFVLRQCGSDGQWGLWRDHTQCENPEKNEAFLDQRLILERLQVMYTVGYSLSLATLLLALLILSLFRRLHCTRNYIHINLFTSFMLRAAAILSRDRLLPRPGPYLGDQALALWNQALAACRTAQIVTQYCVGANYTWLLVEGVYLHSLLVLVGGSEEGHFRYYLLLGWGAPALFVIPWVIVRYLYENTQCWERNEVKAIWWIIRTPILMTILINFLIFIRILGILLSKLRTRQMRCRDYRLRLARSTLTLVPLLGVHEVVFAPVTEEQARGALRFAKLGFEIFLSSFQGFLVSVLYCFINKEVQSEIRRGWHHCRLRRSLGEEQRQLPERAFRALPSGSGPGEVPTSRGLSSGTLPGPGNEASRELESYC
Experiment: cell-based or functional assay
*1 amine or outer side, *2 acyl side, *3 side chain or, on linkers, in order; H or OH if unused. Where no end group is shown, it is not given here. Side-chain parts run from the residue outwards. [ ]: non-standard residue; d: D form. The star is where a group is joined. Decanoyl(10-(4-HOOC-PhO)) = O=C(O)c1ccc(OCCCCCCCCCC(=O)*)cc1; αMePhe(2-F) = C[C@](N)(Cc1ccccc1F)C(=O)O; γGlu = O=C(O)[C@H](CCC(=O)[*:2])N[*:1]; αMeY = C[C@](N)(Cc1ccc(O)cc1)C(=O)O; αMeL = CC(C)C[C@](C)(N)C(=O)O; Orn = NCCC[C@H](N)C(=O)O; AEEA = NCCOCCOCC(=O)O; Aib = CC(C)(N)C(=O)O
measured_property: cAMP EC50 (1.0% HSA) (nM)
Give the quantity in nM, number only.

Prompt: Record request: cAMP EC50 (1.0% HSA) value, item YXEGTXTSDXSIXLDXIAQXKFIXXLIKGGPSSGAPPPS (Y-Aib-EGT-αMeF(2F)-TSD-OMeY-SI-αMeL-LD-Orn-IAQ-Aib-K((2-[2-(2-Amino-ethoxy)-ethoxy]-acetyl)2-(γ-Glu)-CO-(CH2)12-CO2H)FI-(D-Glu)-αMeY-LIK((2-[2-(2-Amino-ethoxy)-ethoxy]-acetyl)2-(γ-Glu)-CO-(CH2)12-CO2H)GGPSSGAPPPS-NH2) [Example 263]
Response: 5.91

Prompt: For the binder YXEGTXTSDYXIXLDXKAQXEFIXXLIEGGPSSGAPPPSK (Y-Aib-EGT-αMeF(2F)-TSDY-Aib-I-αMeL-LD-Orn-K((2-[2-(2-Amino-ethoxy)-ethoxy]-acetyl)2-(γ-Glu)-(10-(4-carboxyphenoxy)decanoyl))AQ-Aib-EFI-(D-Glu)-αMeY-LIEGGPSSGAPPPSK((2-[2-(2-Amino-ethoxy)-ethoxy]-acetyl)2-(γ-Glu)-(10-(4-carboxyphenoxy)decanoyl))-NH2) [Example 238] , what cAMP EC50 (1.0% HSA) is on record?
Response: 1.31

Prompt: // returns reported cAMP EC50 (1.0% HSA) for input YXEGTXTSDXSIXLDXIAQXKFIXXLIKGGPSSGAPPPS (Y-Aib-EGT-αMeF(2F)-TSD-OMeY-SI-αMeL-LD-Orn-IAQ-Aib-K((2-[2-(2-Amino-ethoxy)-ethoxy]-acetyl)2-(γ-Glu)-(10-(4-carboxyphenoxy)decanoyl))FI-(D-Glu)-αMeY-LIK((2-[2-(2-Amino-ethoxy)-ethoxy]-acetyl)2-(γ-Glu)-(10-(4-carboxyphenoxy)decanoyl))GGPSSGAPPPS-NH2) [Example 280]
Response: 4.84

Prompt: Please look up its cAMP EC50 (1.0% HSA): Y[Aib]EGT[αMePhe(2-F)]TSDV[Aib]I[αMeL]LD[Orn]K([AEEA-AEEA-γGlu-Decanoyl(10-(4-HOOC-PhO))])AQ[Aib]EFI[dE][αMeY]LIK([AEEA-AEEA-γGlu-Decanoyl(10-(4-HOOC-PhO))])GGPSSGAPPPS-NH2 [Example 326]
Response: 4.62
